Reference source: patent US5032404A

- Test system: C. albicans
- PROTOCOL TEXT: Antifungal activity (MIC) of free versus liposomal polyenes
- Type: cell-based
MEASURED METRIC: MIC, free

For reference, reported MIC, free for CCCCC[C@@H](O)[C@H]1C(=O)O[C@H](C)[C@@H](O)/C=C/C=C/C=C/C=C/C=C(\C)[C@@H](O)C[C@H](O)C[C@H](O)C[C@H](O)C[C@H](O)C[C@H](O)C[C@@H]1O stands at 8.0 to 16.0 µg/mL

For reference, reported MIC, free for C[C@@H]1[C@H](O)[C@@H](C)/C=C/C=C/C=C/C=C/C=C/C=C/C=C/[C@H](O[C@@H]2O[C@H](C)[C@@H](O)[C@H](N)[C@@H]2O)C[C@@H]2O[C@](O)(C[C@@H](O)C[C@@H](O)[C@H](O)CC[C@@H](O)C[C@@H](O)CC(=O)O[C@H]1C)C[C@H](O)[C@H]2C(=O)O stands at 0.4 µg/mL

For reference, reported MIC, free for CCCCC[C@@H](O)[C@H]1C(=O)O[C@H](C)[C@@H](O)/C=C/C=C/C=C/C=C/C=C(\C)[C@@H](O)[C@H](O)[C@H](O)C[C@H](O)C[C@H](O)C[C@H](O)C[C@H](O)C[C@@H]1O stands at 4.0 µg/mL

For reference, reported MIC, free for C[C@@H]1C/C=C/C=C/C=C/C=C/[C@H](O[C@@H]2O[C@H](C)[C@@H](O)[C@H](N)[C@@H]2O)C[C@@H]2O[C@](O)(C[C@@H](O)C[C@H]3O[C@@H]3/C=C/C(=O)O1)C[C@H](O)[C@H]2C(=O)O stands at 4.0 µg/mL

For reference, reported MIC, free for COc1cc2c(c3oc(-c4ccccc4)cc(=O)c13)C=CC(C)(C)O2 stands at 5.0 µg/mL

For reference, reported MIC, free for C[C@@H]1[C@H](O)[C@@H](C)/C=C/C=C/CC/C=C/C=C/C=C/C=C/C(O[C@H]2O[C@H](C)[C@@H](O)[C@H](N)[C@@H]2O)CC2O[C@](O)(CC(O)C(O)CCC(O)CC(O)CC(O)CC(=O)O[C@H]1C)CC(O)C2C(=O)O (stereo partly drawn) stands at 1.0 µg/mL
